assay.protocol: Kinetic solubility in phosphate buffer
Type: physicochemical
test.context: 100 mM phosphate buffer, 1% DMSO
quantity.measured: solubility kinetic at 1 h (µM)
Kindly answer with a numeric value in µM, unit omitted.

solubility kinetic at 1 h reading for CO[C@H]1C[C@@H](C(=O)NC(=O)Nc2ccc(Oc3ccc(Cl)cn3)c(C)c2)C1 : 5.7

---

System: MDR1 (P-gp)
assay.protocol: MDR1-MDCK cellular permeability
Format: in vitro ADME, canine
test.context: dog, read-out: apparent permeability coefficient
quantity.measured: Papp at 90 min, 2 µM (×10⁻⁶ cm/s)
Kindly answer with a numeric value in ×10⁻⁶ cm/s, unit omitted.

Papp at 90 min, 2 µM reading for CO[C@H]1C[C@@H](C(=O)NC(=O)Nc2ccc(Oc3ccc(Cl)cn3)c(C)c2)C1 [RGN3067] : 22.7
